Record form. Attribute: log10 MIC. Fill in for each entry.
Test system: Streptococcus pyogenes
Experiment: Antibacterial activity against efflux mediated macrolide resistant Streptococcus pyogenes by agar microdilution method
Assay type: functional
Note: values are log10 of MIC expressed in µg/mL.

Looking up CCC1OC(=O)[C@H](C)[C@@H](O[C@H]2C[C@@](C)(OC)[C@@H](OC(=O)CNCCCNCCOCCNc3cc4c(=O)c(C(=O)O)cn(C5CC5)c4cc3Cl)[C@H](C)O2)C(C)[C@@H](O[C@@H]2O[C@H](C)C[C@H](N(C)C)[C@H]2O)[C@](C)(O)C[C@@H](C)CN(C)[C@H](C)[C@@H](O)[C@]1(C)O (single isomer, unassigned) , I found its log10 MIC recorded as -0.30

Looking up CC[C@@H]1OC(=O)[C@H](C)[C@@H](O[C@@H]2C[C@](C)(OC)[C@H](O)[C@@H](C)O2)[C@@H](C)[C@@H](O[C@@H]2O[C@H](C)C[C@H](N(C)C)[C@H]2O)[C@](C)(O)C[C@@H](C)CN(C)[C@H](C)[C@@H](O)[C@]1(C)O , I found its log10 MIC recorded as 1.20

Looking up CCC1OC(=O)[C@H](C)[C@@H](O[C@H]2C[C@@](C)(OC)[C@@H](OC(=O)CNCCCNCCOCCOCCNc3cc4c(cc3F)c(=O)c(C(=O)O)cn4C3CC3)[C@H](C)O2)C(C)[C@@H](O[C@@H]2O[C@H](C)C[C@H](N(C)C)[C@H]2O)[C@](C)(O)C[C@@H](C)CN(C)[C@H](C)[C@@H](O)[C@]1(C)O (single isomer, unassigned) , I found its log10 MIC recorded as 0.00

Looking up CCC1OC(=O)[C@H](C)[C@@H](O[C@H]2C[C@@](C)(OC)[C@@H](OC(=O)CNC(=O)CCNCCOCCNc3cc4c(cc3F)c(=O)c(C(=O)O)cn4C3CC3)[C@H](C)O2)C(C)[C@@H](O[C@@H]2O[C@H](C)C[C@H](N(C)C)[C@H]2O)[C@](C)(O)C[C@@H](C)CN(C)[C@H](C)[C@@H](O)[C@]1(C)O (single isomer, unassigned) , I found its log10 MIC recorded as 0.90

Looking up CCC1OC(=O)[C@H](C)[C@@H](O[C@H]2C[C@@](C)(OC)[C@@H](OC(=O)CNCCSc3cnc4ccccc4n3)[C@H](C)O2)C(C)[C@@H](O[C@@H]2O[C@H](C)C[C@H](N(C)C)[C@H]2O)[C@](C)(O)C[C@@H](C)CN(C)[C@H](C)[C@@H](O)[C@]1(C)O (single isomer, unassigned) , I found its log10 MIC recorded as -0.60

Looking up CCC1OC(=O)[C@H](C)[C@@H](O[C@H]2C[C@@](C)(OC)[C@@H](OC(=O)CNC(=O)CCNCCOCCOCCNc3cc4c(cc3F)c(=O)c(C(=O)O)cn4C3CC3)[C@H](C)O2)C(C)[C@@H](O[C@@H]2O[C@H](C)C[C@H](N(C)C)[C@H]2O)[C@](C)(O)C[C@@H](C)CN(C)[C@H](C)[C@@H](O)[C@]1(C)O (single isomer, unassigned) , I found its log10 MIC recorded as 1.20
